- Test system: Mycobacterium tuberculosis strain EH4.0 expressing green-fluorescent protein (GFP)
- test.method.notes: microbe, parasite or virus in culture
- Type: cell-based
- reported.conditions: 168 h, read-out: pIC50 (converted)
Binarize IC50 at 60 nM; below is met, at or above is not met.

>>> print(df.to_string())
                                        mol    label
0  Cc1cn2c(C(=O)NCc3ccc(N4CCN(S(=O)(=O)C(F)(F)F)C=N4)c(F)c3)c(C(F)(F)F)nc2s1      met
1  CCc1nc2ncc(C(=O)N(C)C)cn2c1C(=O)NCc1ccc(N2CCN(S(=O)(=O)C(F)(F)F)C=N2)cc1  not met
2  CCc1nc2ccc(Cl)cn2c1C(=O)NCc1ccc(N2CCN(S(=O)(=O)C(F)(F)F)C(C)=N2)cc1      met
3  CCc1nc2ncc(F)cn2c1C(=O)NCc1ccc(N2CCN(S(=O)(=O)C(F)(F)F)C=N2)cc1  not met
4  CCc1nc2ccc(Cl)cn2c1C(=O)NCc1ccc(N2CCN(Cc3nc(C(F)(F)F)cs3)C=N2)cc1  not met

Hello, I'm reviewing records and need to know if IC50 of CCc1nc2c(Cl)cc(C)cn2c1C(=O)NCc1ccc(N2CCN(S(=O)(=O)C(F)(F)F)C=N2)c(F)c1 is below 60 nM. Could you check?
met

Input CCc1nc2ccc(F)cn2c1C(=O)NCc1ccc(N2CCN(S(=O)(=O)C(F)(F)F)C(OC)=N2)c(F)c1
met

* * *

- System: Mycobacterium tuberculosis strain EH4.0 expressing green-fluorescent protein (GFP)
- test.method.notes: microbe, parasite or virus in culture
- Assay type: cell-based
- reported.conditions: 168 h, read-out: pIC50 (converted)
I'd be grateful if you could share measured log10 IC50 for these entries.
// units: nM (pre-log); metric: IC50; scale: log10

Some compounds with recorded log10 IC50:
>>> print(df.to_string())
                                   compound                                    system  endpoint_value
0  O=C(NCc1ccc(N2CCN(S(=O)(=O)C(F)(F)F)C=N2)c(F)c1)c1c(C(F)F)nc2ccccn12 [Compound 159]  Mycobacterium tuberculosis strain EH4.0 expressing green-fluorescent protein (GFP)            0.08
1  CCc1nc2ccc(OC)cn2c1C(=O)NCc1ccc(N2CCN(S(=O)(=O)C(F)(F)F)C=N2)cc1 [Compound 42]  Mycobacterium tuberculosis strain EH4.0 expressing green-fluorescent protein (GFP)            0.80
2  CCc1nc2ccc(Cl)cn2c1C(=O)NCc1ccc(N2CCNC=N2)cc1 [Compound 56]  Mycobacterium tuberculosis strain EH4.0 expressing green-fluorescent protein (GFP)            5.20
3  CCc1nc2c(C)cc(OC)cn2c1C(=O)NCc1ccc(N2CCN(S(=O)(=O)C(F)(F)F)C=N2)c(F)c1 [Compound 105]  Mycobacterium tuberculosis strain EH4.0 expressing green-fluorescent protein (GFP)            1.44
4  O=C(NCc1ccc(N2CCN(S(=O)(=O)C(F)(F)F)C=N2)c(F)c1)c1c(Br)nc2n1CCC2 [Compound 99]  Mycobacterium tuberculosis strain EH4.0 expressing green-fluorescent protein (GFP)            1.51

Need log10 IC50 for each of these compounds.
1. Cc1ccc2nc(C(F)(F)F)c(C(=O)NCc3cnc(N4CCN(S(=O)(=O)C(F)(F)F)C=N4)c(F)c3)n2c1 [Compound 176]
2. CCc1nc2ccc(Cl)cn2c1C(=O)NCc1cc(F)c(N2CCN(S(=O)(=O)C(F)(F)F)C=N2)c(F)c1 [Compound 35]

1. 1.20
2. 0.70

Need log10 IC50 for each of these compounds.
1. CCc1nc2ncc(Cl)cn2c1C(=O)NCc1ccc(N2CCN(S(=O)(=O)C(F)(F)F)C(OC)=N2)cc1 [Compound 27]
2. CCc1nc2ccc(Cl)cn2c1C(=O)NCc1ccc(N2CCN(S(=O)(=O)CC(C)C)C=N2)cc1 [Compound 17]
3. CCc1nc2ncc(Cl)cn2c1C(=O)NCc1cnc(N2CCN(S(=O)(=O)C(F)(F)F)C=N2)c(F)c1 [Compound 168]
4. CCc1nc2ccc(Cl)cn2c1C(=O)NCc1ccc(N2CCN(c3cccs3)C(OC)=N2)cc1 [Compound 120]
5. CCc1nc2ccc(Cl)cn2c1C(=O)NCc1ccc(N2CCN(C=O)C=N2)cc1 [Compound 38]
6. O=C(NCc1ccc(N2CCN(S(=O)(=O)C(F)(F)F)C=N2)cc1)c1c(C(F)F)nc2n1CCCC2 [Compound 104]
7. CCc1nc2nc(C)c(F)cn2c1C(=O)NCc1ccc(N2CCN(S(=O)(=O)C(F)(F)F)C=N2)c(F)c1 [Compound 177]

1. 0.30
2. 1.30
3. 1.59
4. 1.11
5. 1.80
6. 1.45
7. 0.90
